# Tested on: biotinyl-Ile-oxazolone
# TEST NAME: self-aminoacylation, catalytic enhancement (BIO) (fold over background); higher = more active; k-Seq, kA / k0A0; sequences stand for … in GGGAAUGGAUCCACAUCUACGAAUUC…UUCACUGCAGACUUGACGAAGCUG
This sample holds only a part of the variants without activity.
Outcome: fulfilled for self-aminoacylation of at least 2; not fulfilled for anything lower.

[
  {
    "RESIDUE CODES": "ACGUUUGCUAAUAGUCGAAAG [Fam3.1 aminoacylation ribozyme variant]",
    "LABEL VALUE": "not fulfilled"
  }
]

Check this sequence for self-aminoacylation at or above 2: AGGUUUGGUAAUAGUCGCAAG [Fam3.1 aminoacylation ribozyme variant] not fulfilled

Please check the record CUUCACCUAGGUCAUCGCGUG [Fam2.2 aminoacylation ribozyme variant] and state if its self-aminoacylation is at or above 2. fulfilled

====

Below, each entry is listed with its recorded self-aminoacylation.
# Tested on: biotinyl-Phe-oxazolone
# TEST NAME: self-aminoacylation, catalytic enhancement (BFO) (fold over background); higher = more active; k-Seq, kA / k0A0; sequences stand for … in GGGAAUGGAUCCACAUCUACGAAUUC…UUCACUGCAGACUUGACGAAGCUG
Variants at the floor of the assay were thinned out.
Response field accepts a number only; no unit should be typed.

Take a look at these entries with their results.
[
  {
    "RESIDUE CODES": "CUACUCCAAACAAUAGGUCUG [Fam1A.1 aminoacylation ribozyme variant]",
    "ASSAYED SYSTEM": "biotinyl-Phe-oxazolone",
    "self-aminoacylation": 1.17
  },
  {
    "RESIDUE CODES": "CAACUUCGAACAAUCGGUCUG [Fam1A.1 aminoacylation ribozyme variant]",
    "ASSAYED SYSTEM": "biotinyl-Phe-oxazolone",
    "self-aminoacylation": 2.22
  },
  {
    "RESIDUE CODES": "CAACCCUUCAAGCAAUCGGUC [Fam1B.1 aminoacylation ribozyme variant]",
    "ASSAYED SYSTEM": "biotinyl-Phe-oxazolone",
    "self-aminoacylation": 2.9
  },
  {
    "RESIDUE CODES": "ACACUCUUCAAGCAAUCGGUC [Fam1B.1 aminoacylation ribozyme variant]",
    "ASSAYED SYSTEM": "biotinyl-Phe-oxazolone",
    "self-aminoacylation": 4.37
  },
  {
    "RESIDUE CODES": "CUUCUUCAAACAAUCGUUCUG [Fam1A.1 aminoacylation ribozyme variant]",
    "ASSAYED SYSTEM": "biotinyl-Phe-oxazolone",
    "self-aminoacylation": 1.06
  }
]

Given the entry AUUAUCCUGGUCAUGGAGUGA [Fam2.1 aminoacylation ribozyme variant] , what self-aminoacylation was observed with biotinyl-Phe-oxazolone? 13.6

Missing value: self-aminoacylation, biotinyl-Phe-oxazolone, entry AUUACCCUGUUCAUCGCGUGA [Fam2.1 aminoacylation ribozyme variant] . Fill in? 171

Value wanted: self-aminoacylation (biotinyl-Phe-oxazolone) of entry CUACUUCAAACAAUCUGUCUG [Fam1A.1 aminoacylation ribozyme variant] 3.23

Request: self-aminoacylation, test system biotinyl-Phe-oxazolone, entry CCUCACUUCAAGCAAUCGGAC [Fam1B.1 aminoacylation ribozyme variant] 2.16

Look up self-aminoacylation with biotinyl-Phe-oxazolone for this sequence: CUACUUCAAACAAUCGGUCUG [Fam1A.1 aminoacylation ribozyme variant] 67.9

Field: self-aminoacylation (biotinyl-Phe-oxazolone). Entry: CUAUUUCAAACAAUCGGUCUC [Fam1A.1 aminoacylation ribozyme variant] 7.11

Quick check: self-aminoacylation on biotinyl-Phe-oxazolone, item CUACUUCAAACAGUCUGUCUG [Fam1A.1 aminoacylation ribozyme variant] ? 0.663

Query the reported self-aminoacylation for biotinyl-Phe-oxazolone; item: CCACGCUUCAUGCAAUCGGUC [Fam1B.1 aminoacylation ribozyme variant] 0.756

Field: self-aminoacylation (biotinyl-Phe-oxazolone). Entry: AUUCACAUAGCUCAUCGGGUG [Fam2.2 aminoacylation ribozyme variant] 12.6

API: value(readout= self-aminoacylation, system= biotinyl-Phe-oxazolone, query= AAUCACCUAGGUCAUCGCGUG [Fam2.2 aminoacylation ribozyme variant] ) 70.6

So what self-aminoacylation did AUUCACGUAGGUCAUCCGGUG [Fam2.2 aminoacylation ribozyme variant] get with biotinyl-Phe-oxazolone? 120

For biotinyl-Phe-oxazolone, provide self-aminoacylation of AUUCACCUAGGACAUCCGGUG [Fam2.2 aminoacylation ribozyme variant] please. 31

# value lookup — system biotinyl-Phe-oxazolone, readout self-aminoacylation, item GUUCACCUAGUUCAUCGGGUG [Fam2.2 aminoacylation ribozyme variant] 15.4

Give biotinyl-Phe-oxazolone self-aminoacylation for AUUACCGUGGUCAUCGUGUGA [Fam2.1 aminoacylation ribozyme variant] 5.4

Lookup: self-aminoacylation / biotinyl-Phe-oxazolone / AUUCACGUAGGCCAUCGGGUG [Fam2.2 aminoacylation ribozyme variant] 48.1

Give the reported self-aminoacylation for CUUACCCUGGUCAUCCAGUGA [Fam2.1 aminoacylation ribozyme variant] (system: biotinyl-Phe-oxazolone). 16.9

Observed self-aminoacylation on biotinyl-Phe-oxazolone for AUUAACCUAGGUCAUCGGGUG [Fam2.2 aminoacylation ribozyme variant] , please. 248

Give recorded self-aminoacylation with biotinyl-Phe-oxazolone for the following sequence: AAGUUCGCUAAUAGCCGCAAG [Fam3.1 aminoacylation ribozyme variant] 1.97

Look up self-aminoacylation with biotinyl-Phe-oxazolone for this sequence: AUUCACCUAGGUCAUCAGGCG [Fam2.2 aminoacylation ribozyme variant] 1.02

Enter reported self-aminoacylation observed with biotinyl-Phe-oxazolone for CCACACUUCAAGCAAACGGUC [Fam1B.1 aminoacylation ribozyme variant] 1.02
